Test system: L1210 leukemia ip in BDF1 mice, survival T/C
Assay: NCI In Vivo Anticancer Drug Screen. Data for tumor model L1210 Leukemia (intraperitoneal) in B6D2F1 (BDF1) mice
Conditions: endpoint: mean survival time; dose: 50.0 mg/kg/injection; schedule: Q01DX001 (ip); vehicle: Klucel (hydroxypropylcellulose) (HPC); higher = longer survival
Inconclusive results and toxic doses are left out.
measured_endpoint: T/C

Sample answers from the record:
compound | result
C=CCCc1c(N)nc(N)[nH]c1=O | 100 % of control
CCCC[n+]1cccc2ccccc21 | 100 % of control
O=C1Nc2ccc(C(=O)O)c(O)c2C1=O | 112 % of control

Dear colleague, could you send me T/C for each of the items below? Thanks.
1. O=CC1c2ccccc2C(C=O)c2c1ccc1ccccc21 (centres undefined)
2. CS(=O)(=O)c1nc2[nH]c(=O)[nH]c(=O)c2cc1C#N
3. CCCCCCCCCCCCCCSCCSCCSCCCCCCCCCCCCCC
4. CCOC(=O)C1(C(C)C)OC2(O)C3CCCN3C(=O)C(C(C)C)N2C1=O (centres undefined)
5. NNc1cc(NN)c2[nH]cnc2n1
6. CCOC(=O)c1cc2ccccc2[nH]1

*A*
1. 93 % of control
2. 98 % of control
3. 89 % of control
4. 101 % of control
5. 93 % of control
6. 93 % of control

----------
System: L1210 leukemia ip in BDF1 mice, survival T/C
Assay: NCI In Vivo Anticancer Drug Screen. Data for tumor model L1210 Leukemia (intraperitoneal) in B6D2F1 (BDF1) mice
Conditions: endpoint: mean survival time; dose: 100.0 mg/kg/injection; schedule: Q01DX001 (ip); vehicle: saline; higher = longer survival
Method: The antitumor activity of compounds was measured in mice bearing transplantable tumors. Survival or tumor size were measured and the results are expressed as the measurement made in the treated group (T) divided by the measurement made in the vehicle treated control group (C). The tumor model used in this assay is L1210 Leukemia (intraperitoneal) in B6D2F1 (BDF1) mice
Toxic doses and inconclusive results are not listed.
measured_endpoint: T/C

Sample answers from the record:
compound | system | result
N#CC1C(=O)NC(=O)C(C#N)C12CCCCC2 (centres undefined) | L1210 leukemia ip in BDF1 mice, survival T/C | 106 % of control
CC1CCCC(C)C1O (centres undefined) | L1210 leukemia ip in BDF1 mice, survival T/C | 103 % of control
CS(=O)(=O)OCCN(CCO)c1cn(C(c2ccccc2)(c2ccccc2)c2ccccc2)c(=O)n(C(c2ccccc2)(c2ccccc2)c2ccccc2)c1=O | L1210 leukemia ip in BDF1 mice, survival T/C | 105 % of control
Cc1ccc(C(=O)C(=O)c2ccccc2)c(C)c1 | L1210 leukemia ip in BDF1 mice, survival T/C | 107 % of control

Dear colleague, could you send me T/C for each of the items below? Thanks.
1. O=C(OCc1ccccc1)C1CCCN1Cc1ccc2c(c1)OCO2 (centres undefined)
2. Oc1cccc(NC(=S)Nc2ccccc2)c1

*A*
1. 93 % of control
2. 94 % of control

Dear colleague, could you send me T/C for each of the items below? Thanks.
1. CCCCC(=O)N/N=C/c1ccc([N+](=O)[O-])cc1
2. CCCCCCc1ccc2c(c1)CC(CCCC)C2 (centres undefined)
3. O=C(O)C1(O)CCCCC1
4. COc1ccc(C(=O)/C=C/c2ccccc2)c(O)c1
5. N#CCCN1CCCC1=O
6. CCCN(CCC)CP(=S)(CN(CCC)CCC)CN(CCC)CCC
7. CCOC(=O)CNS(=O)(=O)c1ccccc1

*A*
["95 % of control", "104 % of control", "104 % of control", "102 % of control", "103 % of control", "92 % of control", "98 % of control"]

Record `N#Cc1ccc(Cl)c2c1C(=O)c1ccccc1C2=O` . Reported T/C: 98 % of control

----------
Give measured T/C for each item. Keep answers brief.
Tested on: L1210 leukemia ip in BDF1 mice, survival T/C
Test: NCI In Vivo Anticancer Drug Screen. Data for tumor model L1210 Leukemia (intraperitoneal) in B6D2F1 (BDF1) mice
Details: endpoint: mean survival time; dose: 200.0 mg/kg/injection; schedule: Q04DX003 (ip); vehicle: Klucel (hydroxypropylcellulose) (HPC); higher = longer survival
Inconclusive results and toxic doses are left out.

compound | T/C
COc1ccc(C(=O)C(C)C(O)(C(F)(F)F)C(F)(F)F)cc1 (stereo not given) | 100 % of control

Dear colleague, could you send me T/C for each of the items below? Thanks.
1. C=CCS(=O)(=O)c1ccc(C)cc1
2. O=Cc1occ(-c2ccccc2)c1-c1ccccc1
3. CCc1ccccc1NC(=O)Sc1cccc(C)c1
4. O=C(O)c1nc2ccccc2[nH]c1=O
5. O=C(Nc1cc([N+](=O)[O-])ccc1F)Oc1ccccc1F
6. NC(=O)N/N=C1/CCCC(C(=O)O)C1 (stereo not given)
7. O=C(Nc1ccc2ccccc2c1)c1ccccc1

*A*
["100 % of control", "97 % of control", "105 % of control", "92 % of control", "94 % of control", "98 % of control", "93 % of control"]

Dear colleague, could you send me T/C for each of the items below? Thanks.
1. O=S(=O)(Nc1ccccc1)c1ccccc1
2. CSc1ncc(C(=O)O)c(=O)[nH]1

*A*
["107 % of control", "101 % of control"]

Dear colleague, could you send me T/C for each of the items below? Thanks.
1. CCOc1ccccc1-n1c(-c2ccc([N+](=O)[O-])cc2)csc1=NC(=O)c1cccc([N+](=O)[O-])c1
2. S=C1NC2(CCCCC2)NC12CCCCC2
3. CC(=O)Oc1c(C)c(Br)c(OC(C)=O)c(-c2c(C)cc(C)c(Br)c2C)c1Br

*A*
95 % of control
103 % of control
95 % of control

Dear colleague, could you send me T/C for each of the items below? Thanks.
1. COc1cccc(CCNC(=O)CC#N)c1
2. N#CC(=C(c1ccccc1)c1ccccc1)c1ccccc1
3. COc1ccc2c(c1)c(CC(=O)O)c(Br)n2Cc1ccccc1

*A*
87 % of control
108 % of control
100 % of control

----------
Give measured T/C for each item. Keep answers brief.
Test system: L1210 leukemia ip in BDF1 mice, survival T/C
Assay: NCI In Vivo Anticancer Drug Screen. Data for tumor model L1210 Leukemia (intraperitoneal) in B6D2F1 (BDF1) mice
Conditions: endpoint: mean survival time; dose: 400.0 mg/kg/injection; schedule: Q04DX003 (ip); vehicle: saline with Tween-80; higher = longer survival
Inconclusive results and toxic doses are left out.

molecule | T/C
O=C(OCCCl)c1ccc([N+](=O)[O-])cc1 | 102 % of control
CSc1nc2cc(C)c(C)cc2[nH]1 | 94 % of control
O=C(O)C1CC1Oc1ccccc1 (stereo not drawn) | 106 % of control
COc1cc(/C=N/NC(=O)c2ccncc2)cc(OC)c1OC | 100 % of control
CCCCCCCCCCCCCCCC(=O)OCCCCCCCCCC | 95 % of control

Dear colleague, could you send me T/C for each of the items below? Thanks.
1. CCCCCCCCC1SC1CCCCCCCC(=O)N1CCCN(C(=O)CCCCCCCC2SC2CCCCCCCC)C1 (stereo not drawn)
2. O=C(O)c1ccc(NC(=O)c2ccc3ccccc3c2O)cc1
3. CC(=O)Oc1cc(C=O)cc(OC(C)=O)c1OC(C)=O
4. CC(=O)C(/C=N/C(=O)N(C)C)=C(/C)O
5. O=C(OCCl)c1ccc(Cl)cc1Cl

*A*
1: 97 % of control; 2: 96 % of control; 3: 108 % of control; 4: 104 % of control; 5: 88 % of control

Dear colleague, could you send me T/C for each of the items below? Thanks.
1. N#C/C(=C1C=C/C(=N/O)C(Cl)=C/1)c1ccc(Cl)cc1
2. CC(=O)Nc1cccc2ccccc12
3. CC(C)CC(=O)OC1CCCCC1
4. O=C1C(Cl)=C(Cl)C(=O)N1c1ccc(Cl)c(Cl)c1

*A*
1. 97 % of control
2. 100 % of control
3. 95 % of control
4. 94 % of control

----------
System: L1210 leukemia ip in BDF1 mice, survival T/C
Assay: NCI In Vivo Anticancer Drug Screen. Data for tumor model L1210 Leukemia (intraperitoneal) in B6D2F1 (BDF1) mice
Details: endpoint: mean survival time; dose: 100.0 mg/kg/injection; schedule: Q01DX001 (ip); vehicle: saline; higher = longer survival
Procedure: The antitumor activity of compounds was measured in mice bearing transplantable tumors. Survival or tumor size were measured and the results are expressed as the measurement made in the treated group (T) divided by the measurement made in the vehicle treated control group (C). The tumor model used in this assay is L1210 Leukemia (intraperitoneal) in B6D2F1 (BDF1) mice
Toxic doses and inconclusive results are not listed. Numbered stars: 1 amine (or outer) side, 2 acyl side, 3 side chain; on linkers, the order of the positions; unused ones are H or OH. Square brackets hold non-standard residues; d marks the D form. Peptide text beside a SMILES is read from it. γGlu = O=C(O)[CH](CCC(=O)[*:2])N[*:1]; Hpg = N[CH](C(=O)O)c1ccc(O)cc1
measured_endpoint: T/C

molecule | system | T/C
OCCN1CCN(CC/C=C2/c3ccccc3Sc3ccc(Cl)cc32)CC1 | L1210 leukemia ip in BDF1 mice, survival T/C | 100 % of control

Dear colleague, could you send me T/C for each of the items below? Thanks.
1. CC(NC(=O)CCC(NC(=O)C(Cc1ccc(O)cc1)NC(=O)CNC(=O)C(C)NC(=O)CCC(NC(=O)C(N)c1ccc(O)cc1)C(=O)O)C(=O)O)C(=O)NCC(=O)NCC(=O)O (centres undefined) (H-[Hpg][γGlu]AGY[γGlu]AGG-OH; configuration not given here)
2. NNP(=O)(c1ccccc1)c1ccccc1
3. CCc1occ(C(=O)OC)c1C1SCCS1
4. COc1ncc(F)c(OC)n1
5. CCCCCCCCCCCCC[As](=O)(O)CCCCCCCCCCCCC
6. CCCCCCCCCCCC[N+](CC)(CC)CC(=O)O
7. Nc1ccc(S(=O)(=O)Nc2ccc([N+](=O)[O-])cn2)cc1
8. Cc1cc(Cl)c(OCC(=O)O)c(Cl)c1

*A*
97 % of control
108 % of control
92 % of control
100 % of control
103 % of control
93 % of control
101 % of control
92 % of control

Dear colleague, could you send me T/C for each of the items below? Thanks.
1. CCC[CH2][Pb]([CH2]CCC)([CH2]CCC)[n]1ccnc1
2. CCOC(OCC)c1ccccc1

*A*
["95 % of control", "115 % of control"]

Dear colleague, could you send me T/C for each of the items below? Thanks.
1. S=P(Nc1ccccc1)(Nc1ccccc1)Oc1cc(Cl)c(Cl)cc1Cl
2. CCCN1CC(C(=O)OCC)C(=O)C1=O (centres undefined)
3. COc1cc(OC(C)=O)c2ncccc2c1OC(C)=O
4. C/C(=N\N=C(/C)c1ccc(N)cc1)c1ccc(N)cc1
5. CC(=O)OCC1OC(n2cnc3c(Cl)nc(Cl)nc32)CC1OC(C)=O (centres undefined)
6. CS(=O)(=O)NC(=O)C[P+](c1ccccc1)(c1ccccc1)c1ccccc1
7. CC(C)Oc1ccc(C(=O)NS(=O)(=O)c2ccc(N)cc2)cc1

*A*
["92 % of control", "100 % of control", "94 % of control", "90 % of control", "101 % of control", "96 % of control", "101 % of control"]

Dear colleague, could you send me T/C for each of the items below? Thanks.
1. O=C(/C=C\c1ccccc1)OCCCCOC(=O)/C=C/c1ccccc1
2. N#CCC[N+]1([O-])CCCC1C(=O)O (centres undefined)

*A*
101 % of control
103 % of control
